assay: Specificity towards 5-HT2A receptor to that of alpha-1 adrenoceptor.; type: functional
measured-endpoint: Specificity

Sample records with Specificity:
molecule	Specificity
COC1CCC(C(=O)OCC2=C[C@@H]3c4cccc5[nH]cc(c45)C[C@H]3N(C)C2)CC1.O=C(O)/C=C\C(=O)O (some centres undefined)	12
CN1CC(COC(=O)C2CCCCC2)=C[C@@H]2c3cccc4[nH]cc(c34)C[C@H]21.O=C(O)/C=C\C(=O)O	32
CC(C)n1cc2c3c(cccc31)[C@H]1C=C(COC(=O)C3CCC3)CN(C)[C@@H]1C2.O=C(O)/C=C\C(=O)O	2180
CN1C[C@H](COC(=O)C2CCCC2)C=C2c3cccc4[nH]cc(c34)C[C@H]21.O=C(O)/C=C\C(=O)O	120
CC(C)n1cc2c3c(cccc31)C1=C[C@@H](COC(=O)C3CC3)CN(C)[C@@H]1C2.O=C(O)/C=C\C(=O)O	4570
CC(C)n1cc2c3c(cccc31)[C@H]1C[C@@H](COC(=O)C3CCCC3)CN(C)[C@@H]1C2.O=C(O)/C=C\C(=O)O	933

Prompt line: Entry CC(C)n1cc2c3c(cccc31)[C@H]1C=C(COC(=O)C3CCCCCC3)CN(C)[C@@H]1C2.O=C(O)/C=C\C(=O)O : reported Specificity = ?
Response line: > 1860

Prompt line: Please give the measured Specificity for this molecule: CN1CC(COC(=O)C2CCCCCC2)=C[C@@H]2c3cccc4[nH]cc(c34)C[C@H]21.O=C(O)/C=C\C(=O)O
Response line: 832

Prompt line: Suppose we examine the molecule CC(C)n1cc2c3c(cccc31)C1=C[C@@H](COC(=O)C3CCCCCC3)CN(C)[C@@H]1C2.O=C(O)/C=C\C(=O)O ; what Specificity value has been reported?
Response line: 661

----------
biological target: 5-hydroxytryptamine receptor 2A (Rattus norvegicus, UniProt P14842); assay: Partial agonism at 5-HT2A receptor was evaluated in presence of ketanserin (3-10 nM) in isolated rat tail artery; assay type: functional, tissue-based; conditions: read-out: pA2 (converted)
Sequence (P14842 whole entry): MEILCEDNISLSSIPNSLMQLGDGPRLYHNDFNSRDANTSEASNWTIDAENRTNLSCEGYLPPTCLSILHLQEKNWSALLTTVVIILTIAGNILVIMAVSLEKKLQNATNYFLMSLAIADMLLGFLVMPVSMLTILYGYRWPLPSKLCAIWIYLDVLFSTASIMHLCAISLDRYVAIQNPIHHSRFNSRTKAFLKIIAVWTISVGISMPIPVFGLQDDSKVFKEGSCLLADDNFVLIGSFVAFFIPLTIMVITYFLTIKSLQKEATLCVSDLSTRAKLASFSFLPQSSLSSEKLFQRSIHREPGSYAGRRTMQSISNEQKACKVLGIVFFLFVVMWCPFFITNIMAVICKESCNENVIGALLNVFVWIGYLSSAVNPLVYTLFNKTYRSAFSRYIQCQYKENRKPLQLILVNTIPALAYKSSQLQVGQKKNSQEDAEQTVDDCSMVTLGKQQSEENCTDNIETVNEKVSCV
measured-endpoint: Kb (nM)
Return type: number; implicit unit nM.

Recorded Kb, per entry:
compound	Kb [nM]
CN1C[C@H](COC(=O)C2CC2)C=C2c3cccc4[nH]cc(c34)C[C@H]21.O=C(O)/C=C\C(=O)O	0.741
CN1C[C@H](COC(=O)C2CCCC2)C=C2c3cccc4[nH]cc(c34)C[C@H]21.O=C(O)/C=C\C(=O)O	0.741
CN1C[C@H](COC(=O)C2CCCCCC2)C=C2c3cccc4[nH]cc(c34)C[C@H]21.O=C(O)/C=C\C(=O)O	0.776
CN1C[C@H](CO)C=C2c3cccc4[nH]cc(c34)C[C@H]21	0.794
CN1C[C@H](COC(=O)C2CCC2)C=C2c3cccc4[nH]cc(c34)C[C@H]21.O=C(O)/C=C\C(=O)O	0.741

Next:
Prompt line: Using the record for CN1C[C@H](COC(=O)C2CCCCC2)C=C2c3cccc4[nH]cc(c34)C[C@H]21.O=C(O)/C=C\C(=O)O , report its Kb.
Response line: 0.661

----------
biological target: Adrenergic receptor alpha-1 (Rattus norvegicus, UniProt P15823+P23944+P43140); assay: Ability to block alpha-1 adrenergic receptor-mediated contractions of rat aorta.; format: functional
Quick rule for you: pA2 at 6 or higher means yes (1), lower means no (0).

Consider the following illustrative entries.
compound	category-label
CC(C)n1cc2c3c(cccc31)[C@H]1C[C@@H](C)CN(C)[C@@H]1C2.O=C(O)/C=C\C(=O)O	yes (1)
CO[C@H]1CC[C@H](C(=O)OCC2=C[C@@H]3c4cccc5c4c(cn5C(C)C)C[C@H]3N(C)C2)CC1.O=C(O)/C=C\C(=O)O	no (0)
COC1CCC(C(=O)OCC2=C[C@@H]3c4cccc5[nH]cc(c45)C[C@H]3N(C)C2)CC1.O=C(O)/C=C\C(=O)O (some centres not stated)	yes (1)
CC(C)n1cc2c3c(cccc31)[C@H]1C[C@@H](COC(=O)C3CCC3)CN(C)[C@@H]1C2.O=C(O)/C=C\C(=O)O	no (0)
CN1C[C@H](COC(=O)C2CCCCC2)C=C2c3cccc4[nH]cc(c34)C[C@H]21.O=C(O)/C=C\C(=O)O	no (0)

Prompt line: Reported pA2 at or above 6? CN1CC(COC(=O)C2CCC2)=C[C@@H]2c3cccc4[nH]cc(c34)C[C@H]21.O=C(O)/C=C\C(=O)O
Response line: yes (1)
